# method.summary: Serum stability assay (RP-HPLC)
# Assay type: in vitro ADME
# study.conditions: mouse, time 4 (unit inferred), replicate 3, read-out: Fraction of peptide remaining, Supplementary Figure 5
No end group written: not given here.

{"columns": ["substance", "remaining at 4 h, 5 mM (%)"],
 "data": [
  ["PGLYYFD-NH2 (C-terminus assumed) [Pep70]", 23.5]
]}

----------
# method.summary: Serum stability assay (RP-HPLC)
# Format: in vitro ADME
# study.conditions: mouse, time 6 (unit inferred), replicate 1, read-out: Fraction of peptide remaining, Supplementary Figure 5
No end group written: not given here.
property.name: remaining at 6 h, 5 mM (%)

{"columns": ["substance", "property.name", "numeric.readout"],
 "data": [
  ["PGLYYFD-NH2 (C-terminus assumed) [Pep70]", "remaining at 6 h, 5 mM", 2.28]
]}

----------
# method.summary: Serum stability assay (RP-HPLC)
# Type: in vitro ADME
# study.conditions: mouse, time 2 (unit inferred), replicate 2, read-out: Fraction of peptide remaining, Supplementary Figure 5
No end group written: not given here.
property.name: remaining at 2 h, 5 mM (%)

{"columns": ["substance", "unit.label", "numeric.readout"],
 "data": [
  ["PGLYYFD-NH2 (C-terminus assumed) [Pep70]", "%", 53.4]
]}

----------
# method.summary: Serum stability assay (RP-HPLC)
# Type: in vitro ADME
# study.conditions: mouse, time 2.5 (unit inferred), replicate 2, read-out: Fraction of peptide remaining, Supplementary Figure 5
# Experimental: The stability of candidate peptides was investigated following procedure. […] Ice-cold acetonitrile was added to terminate the reaction. Vortex and stand for 1 min, deionized water with 1% TFA was added to the mixture to further terminate the reaction. Mixtures were then centrifuged (13,000g, 10 min) to obtain the supernatant. RP-HPLC-MS was applied to analysis the content of candidate peptides. The serum stability of candidate peptides was represented as the retention rate of each peptide.
No end group written: not given here.

{"columns": ["substance", "unit.label", "remaining at 2.5 h, 5 mM"],
 "data": [
  ["PGLYYFD-NH2 (C-terminus assumed) [Pep70]", "%", 27.2]
]}

----------
Item-by-item account of AUC(0-t)
# method.summary: Pharmacokinetic assay in SD rats
# Type: in vivo, rat
# study.conditions: Sprague-Dawley, rat; male SD rats, single iv dose: JT003 0.5 mg/kg, ADP355 1.0 mg/kg; plasma, LC-MS/MS; non-compartmental; Mean ± SD, n = 3-6
Non-standard residues stand in square brackets, D forms with d. Residues, ends and D or L forms follow the SMILES beside them. Nva = CCC[C@H](N)C(=O)O
property.name: AUC(0-t) (ng·h/mL)

{"columns": ["molecule", "unit.label", "numeric.readout"],
 "data": [
  ["CCC[C@H](NC(=O)[C@@H]1CCCN1)C(=O)N[C@@H](CC(C)C)C(=O)N[C@@H](Cc1ccc(O)cc1)C(=O)N[C@@H](Cc1ccc(O)cc1)C(=O)N[C@@H](Cc1ccccc1)C(=O)N[C@@H](C)C(N)=O [JT003] (H-P[Nva]LYYFA-NH2)", "ng·h/mL", 19.4],
  ["CCC[C@H](NC(=O)[C@@H]1CCCN1C(=O)[C@@H](NC(=O)[C@H](N)CC(N)=O)[C@@H](C)CC)C(=O)N[C@@H](CC(C)C)C(=O)N[C@@H](Cc1ccc(O)cc1)C(=O)N[C@H](CO)C(=O)N[C@@H](Cc1ccccc1)C(=O)N[C@@H](C)C(=O)N[C@H](CO)C(N)=O [ADP355] (H-[dN]IP[Nva]LY[dS]FA[dS]-NH2; N-terminus and C-terminus assumed)", "ng·h/mL", 134]
]}
